Assay: ATG_Oct_MLP_CIS: Attagene CIS-FACTORIAL HepG2 Assay for human Octamer-Binding Transcription Factor (Oct) (AID 2282993)
Conditions: HepG2 Attagene cis-factorial Oct reporter, mRNA; actives raise or lower the signal
Activity calls are given as the source filed them. How the source made its calls: active means hit-call score of the fitted dose curve at least 0.9, where 1 is the maximum; inactive means score below 0.9.
Output constraint: value belongs to class 1 for active, class 0 for inactive

Query: How did this test come out for CCC(C)(CCC(C)C)C(=O)O (configuration not stated) ?
Response: class 0

Query: How did this test come out for CC/C=C\CCCCCO ?
Response: class 0

Query: How did this test come out for CC(=O)c1nccs1 ?
Response: class 0

Query: How did this test come out for CCOc1ccc2c(c1)C(C)CC(C)(C)N2 (configuration not stated) ?
Response: class 0

Query: How did this test come out for CC(C)n1c(/C=C/[C@@H](O)C[C@@H](O)CC(=O)O)c(-c2ccc(F)cc2)c2ccccc21 ?
Response: class 0

Query: How did this test come out for C=CCOC(=O)C(=C)C ?
Response: class 0

Query: How did this test come out for CCCCCCC1CCC(=O)O1 (configuration not stated) ?
Response: class 0

Query: How did this test come out for O=C1CCCCCCCCCCCCCC1 ?
Response: class 0

Query: How did this test come out for Sc1nc2ccccc2s1 ?
Response: class 0

Query: How did this test come out for CCC(C)=NO ?
Response: class 0

Query: How did this test come out for C=CCOCC(CC)(CO)COCC=C ?
Response: class 0

Query: How did this test come out for CN(C)Cc1cc(C(C)(C)C)c(O)c(C(C)(C)C)c1 ?
Response: class 0

Query: How did this test come out for CC/C=C/CCO ?
Response: class 0

Query: How did this test come out for CCCCCCCCCCC1CO1 (configuration not stated) ?
Response: class 0

Query: How did this test come out for C=CC(C)(CCC=C(C)C)OC(=O)c1ccccc1 (configuration not stated) ?
Response: class 0

Query: How did this test come out for CC1(C)S[C@@H]2[C@H](NC(=O)[C@H](N)c3ccccc3)C(=O)N2[C@H]1C(=O)O ?
Response: class 0

Query: How did this test come out for COCCCN ?
Response: class 0

Query: How did this test come out for CCO[Si](CCCN)(OCC)OCC ?
Response: class 0

Query: How did this test come out for Cc1ccccc1S(N)(=O)=O ?
Response: class 0

Query: How did this test come out for O=C(O)/C=C\C(=O)O ?
Response: class 0

Query: How did this test come out for COC(OC)C(C)c1ccccc1 (configuration not stated) ?
Response: class 0

Query: How did this test come out for CCCCCCCC#N ?
Response: class 0

Query: How did this test come out for CCCC[N+]1(C)CCCC1 ?
Response: class 0

Query: How did this test come out for Oc1ccc(Cl)cc1C1CCCC1 ?
Response: class 1

Query: How did this test come out for CCCCNC(N)=O ?
Response: class 0

Query: How did this test come out for O=C(C1CCCCC1)N1CC(=O)N2CCc3ccccc3C2C1 (configuration not stated) ?
Response: class 0

Query: How did this test come out for Nc1nnc(-c2ccc([N+](=O)[O-])o2)o1 ?
Response: class 0

Query: How did this test come out for CCCCCCOC(=O)CCCCCCCC(=O)OCCCCCC ?
Response: class 0

Query: How did this test come out for CC(=O)OC(C)(C)Cc1ccccc1 ?
Response: class 0

Query: How did this test come out for C1=CCC=C1 ?
Response: class 0

Query: How did this test come out for CCCCOC(=O)COc1ccc(Cl)cc1Cl ?
Response: class 0

Query: How did this test come out for CN(C)CCC(c1ccc(Cl)cc1)c1ccccn1 (configuration not stated) ?
Response: class 0
